Data provenance is PubChem BioAssay AID504466.

ASSAY: qHTS screen for small molecules that induce genotoxicity in human embryonic kidney (HEK293T) cells expressing luciferase-tagged ELG1; further: nearly all actives have a fitted effect of over 60% in size; further: potency means the concentration at half of the fitted maximal effect
TEST_CONTEXT: HEK293T ELG1-luciferase reporter, luminescence, 16 h; series mostly up to 46 µM
Among all 330,000 compounds or so, about 4,200 (1.3%) were called active. Another 6% or so got no clear call; they are omitted. This is one part of a sample in which actives are shown more often than they occur.
READOUT_NAME: Potency

In [3]: df
Out[3]:
                                        mol        obs_value
0  O=C(Nc1ccn(Cc2ccccc2F)n1)c1ccc(COc2ccc(Cl)cc2Cl)o1         inactive
1  Cc1ccc(NC(=O)c2ccc(Cl)nc2)cc1S(=O)(=O)N1CCOCC1         inactive
2          COc1ccc(/C=N/Nc2ccccc2C(=O)O)cc1  1.3 µM (active)
3          O=C(COC(=O)c1ccco1)Nc1ccc(Cl)cn1         inactive

Batch of 7 compounds: report Potency for each.
1. COc1ccc(/C=N/OCC(=O)N(Cc2ccccc2)c2ccccc2C(=O)O)cc1
2. O=C1c2ccccc2C(=O)N1CCOc1ccc(F)cc1
3. Cc1csc(=O)n1CC(=O)Nc1ccc(S(C)(=O)=O)cc1
4. Cc1ccc(NC(=O)C2CC2)cc1S(=O)(=O)N1CCOCC1
5. COc1ccc(C(=O)Nc2ccccc2C(=O)N/N=C/c2ccc(O)c(OC)c2)cc1
6. O=C(CCc1ccc(S(=O)(=O)N2CCOCC2)cc1)OCC(=O)c1ccc(Br)cc1
7. Cc1nn(C)cc1/C=N/NC(=O)c1sc2ccccc2c1Cl

1. inactive
2. 20.6 µM (active)
3. inactive
4. inactive
5. inactive
6. inactive
7. inactive
